pIC50: −log10 of the molar value.
// merged dataset of pIC50 values, system = HPK1 (Homo sapiens (Human), UniProt Q92918), multiple refs

C/C(Nc1ccn(C(C)(C)C(N)=O)n1)=C1/C(=O)Nc2cnc(-c3cnccc3C)cc21 = 6.30 to 7.00
Cc1cc(-c2cnc(N)c(OCc3ccnc(N)c3OC3CCOCC3)n2)cc2c1CCN(C)C2 = 8.10
CC(C)(O)[C@@H]1CN(c2ccc(Nc3ccc(-c4cnc5cccnn45)c4c3C(=O)NC4)nc2)CCO1 = > 7.00

Now for a further compound.
Hello, I am looking for reported pIC50 with HPK1 (Homo sapiens (Human), UniProt Q92918) for `COCC1(c2ccc(Nc3ccc(-c4cnc5cc(F)ccn45)c4c3C(=O)NC4)nc2CN(C)C)CCOCC1` . Could you help?
> 7.00

* * *

// merged dataset of IC50 values, system = HPK1 (Homo sapiens (Human)), multiple refs

COc1cc2c(cc1Nc1ncc(C(N)=O)c(Nc3ccccc3C(=O)Nc3ccccc3)n1)CN(C)CC2 = 54.8 nM
Cc1cc(-c2c[nH]c3ncc(-c4cc(C)c5c(c4)CN(CCC(=O)NC[C@H](C)O)CC5)nc23)ccc1C(=O)N(C)C = 63 nM
O=C1NCc2c(-c3cnc4cc(F)ccn34)ncc(Nc3ccc(N4CCCC(O)(CN5CCOCC5)C4)cn3)c21 (stereo not drawn) = < 100 nM
CCS(=O)(=O)Cc1ccc(Nc2ncc3c(N)c(F)c(-c4cnc5c(c4C)NCCO5)cc3n2)cc1 = 0.0117 nM
CC(C)n1ncc2c(N3CC[C@@H](N)C3)c(NC(=O)c3ccc(=O)n(-c4c(F)cccc4F)n3)ccc21 = < 100 nM

Hello, I am looking for reported IC50 with HPK1 (Homo sapiens (Human)) for `O=C1NCc2c(-c3cnc4c(F)cccn34)ncc(Nc3ccc(N4CC[C@H](F)[C@H](O)C4)cn3)c21` . Could you help?
< 100 nM

Hello, I am looking for reported IC50 with HPK1 (Homo sapiens (Human)) for `CCC1(C(=O)Nc2ccc(-c3cc(Nc4ccc(N5CCNCC5)cn4)c4c(=O)[nH]ccc4n3)c(F)c2)CCC1` . Could you help?
100 to 1000 nM

Hello, I am looking for reported IC50 with HPK1 (Homo sapiens (Human)) for Cc1cccc(F)c1-n1nc2c(-c3ccc(N4CCN(C)C(C(=O)O)C4)cc3)n[nH]c2cc1=O (stereo not drawn) . Could you help?
50 to 500 nM

Hello, I am looking for reported IC50 with HPK1 (Homo sapiens (Human)) for `N#Cc1ccncc1-c1ccc(NC(=O)c2ccc(=O)n(-c3c(F)cccc3F)n2)c(N2CCC(O)CC2)c1` . Could you help?
< 100 nM

Hello, I am looking for reported IC50 with HPK1 (Homo sapiens (Human)) for `N#Cc1ccncc1-c1ccc(NC(=O)c2ccc(=O)n(-c3c(F)cccc3F)n2)c(N2CCC(F)(F)[C@@H](N)C2)c1` . Could you help?
< 100 nM

Hello, I am looking for reported IC50 with HPK1 (Homo sapiens (Human)) for `Cn1cc(Nc2ncc(C(N)=O)c(Nc3cccc4c3CCNC4=O)n2)c(OCC(F)F)n1` . Could you help?
15.3 nM

Hello, I am looking for reported IC50 with HPK1 (Homo sapiens (Human)) for `COc1cc2c(cc1Nc1ncc(C(N)=O)c(NCc3cccc(C#N)c3)n1)CN(C)CC2` . Could you help?
9.83 nM

Hello, I am looking for reported IC50 with HPK1 (Homo sapiens (Human)) for `COc1cccc2c(-c3ncc(Nc4ccc(N5CCN(C)CC5)cn4)c4c3CNC4=O)c[nH]c12` . Could you help?
100 to 1000 nM
